- Assay Remarks: CSF/Plasma ratio determination, in-vivo pharmacokinetics mouse p.o.
- Design: species or system CD-1 male mice
- Stated Conditions: male, CD-1, po, 10 mg/kg, AUC0-last(CSF)/AUC0-last(plasma)
- Experimental: CSF/Plasma Ratio Determination […] Test substance concentration in plasma and CSF versus time data were analyzed by non-compartmental approaches; AUC0-last in plasma and CSF were calculated with the log-linear trapezoidal rule. CSF/Plasma ratio was calculated as follows: […]
Parameter: CSF/plasma AUC ratio

mol=Fc1cccc2[nH]c3c(c12)CN(c1ccc2oc(N4CCOCC4)nc2c1)CC3 parameter="CSF/plasma AUC ratio" endpoint_result=0.004

###

- Tested Target: Tau K18 aggregates (Tau K18 fragment, amino acids 244 to 372 of human Tau441) (Homo sapiens, UniProt P10636)
- Construct: encompassing amino acids 244 to 372 of the longest isoform (2N4R) of human Tau441
- Sequence (P10636 561-689): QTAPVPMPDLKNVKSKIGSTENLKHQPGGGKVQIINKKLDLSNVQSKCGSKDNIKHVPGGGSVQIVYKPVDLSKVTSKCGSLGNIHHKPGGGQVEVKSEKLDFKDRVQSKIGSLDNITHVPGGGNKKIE
- Assay Remarks: Tau K18 disaggregation assay by ThT
- Stated Conditions: 2 μM K18 aggregates, 160 to 0.04 μM compound, 30 min RT, ThT fluorescence
Parameter: EC50

compound="c1ccc2c3c([nH]c2c1)CCN(c1ccc2oc(N4CCOCC4)nc2c1)C3 [Example 1]" parameter=EC50 endpoint_result="< 10 µM"
compound="Fc1ccc2[nH]c3c(c2c1)CN(c1ccc2oc(N4CCOCC4)nc2c1)CC3 [Comparative Example 1]" parameter=EC50 endpoint_result="< 10 µM"
compound="Fc1cccc2[nH]c3c(c12)CN(c1ccc2oc(N4CCOCC4)nc2c1)CC3 [Comparative Example 3]" parameter=EC50 endpoint_result="< 10 µM"
